Just for reference, ChEMBL document CHEMBL1201862 is where these values come from.

# Test system: DMS-273
# assay_notes: NCI tumour cell line growth inhibition, 48 h
Calls of active or inactive are those of the source. Cut-off read from the data, not from the text of the source: active = GI50 up to about 1.1 µM and inactive = higher.
readout_label: GI50

Notebook: pull reported GI50 for DMS-273, entry O=C1[C@@H]2C(c3ccc(Cl)cc3Cl)=NO[C@@H]2C(=O)N1c1ccc(Cc2ccc(N3C(=O)[C@H]4C(c5ccc(Cl)cc5Cl)=NO[C@H]4C3=O)cc2)cc1 > 100 µM (inactive)

Notebook: pull reported GI50 for DMS-273, entry O=C(Nc1nccs1)c1cc(C2=CC=CC([N+](=O)[O-])C=C2)nc(S)n1 (stereo unspecified) > 100 µM (inactive)

Notebook: pull reported GI50 for DMS-273, entry O=C(OC(=O)n1ccc2ccccc21)n1ccc2ccccc21 > 100 µM (inactive)

Notebook: pull reported GI50 for DMS-273, entry CC(=O)CC(N)=O > 100 µM (inactive)

Notebook: pull reported GI50 for DMS-273, entry CSc1c(C)c(C)nn1-c1ccccc1 > 100 µM (inactive)

Notebook: pull reported GI50 for DMS-273, entry CNCCCCN(C)/[N+]([O-])=N\O > 100 µM (inactive)

Notebook: pull reported GI50 for DMS-273, entry Cc1ccc(S(=O)(=O)C(CC(=O)N2CCCC2)C(=O)c2ccccc2)cc1 (stereo unspecified) 97.1 µM (inactive)

Notebook: pull reported GI50 for DMS-273, entry Cc1cc2c(c3c1c1ccccc1n3C)C(=O)c1ccccc1C2=O > 100 µM (inactive)

Notebook: pull reported GI50 for DMS-273, entry NC(=O)CCC(NC(=O)Cc1ccccc1)C(=O)O (stereo unspecified) > 2470 µM (inactive)

Notebook: pull reported GI50 for DMS-273, entry CCOC(=O)/C(O)=C1\C(=O)N(C)C(=O)C1c1ccc(OC)c(OC)c1 (stereo unspecified) > 100 µM (inactive)

Notebook: pull reported GI50 for DMS-273, entry Nc1ncnc2sc(Nc3ccccc3)nc12 > 100 µM (inactive)
